parasite growth, % of control (lower = inhibition) listing for selected compounds.
procedure-details: qHTS profiling of the MIPE4 collection as inhibitors of Plasmodium falciparum (DD2) proliferation (Rep 2) (AID 743346)
reported-conditions: P. falciparum Dd2 in erythrocytes, SYBR Green DNA, 72 h; at 28.5 µM unless noted
measured-parameter: parasite growth, % of control (lower = inhibition) (%)

>  <compound>
Cc1c(Cn2c(C)nc3c(C(=O)O)cc(N4CCOCC4)cc32)cccc1C(F)(F)F

>  <quantitative-result>
104

$$$$
>  <compound>
CC(O)C1C(=O)N2C(C(=O)O)=C(SC3CNC(C(=O)N(C)C)C3)C(C)C12 (stereo unspecified)

>  <quantitative-result>
82.6

$$$$
>  <compound>
CCN1CCN(CC(=O)Nc2ccc(-c3cccc4c(=O)cc(N5CCOCC5)oc34)c3sc4ccccc4c23)CC1

>  <quantitative-result>
16.5

$$$$
>  <compound>
COc1cc2ncnc(Nc3ccc(F)c(Cl)c3)c2cc1NC(=O)C=CCN1CCCCC1

>  <quantitative-result>
11

$$$$
>  <compound>
Cc1ccc(CN2CCNCC2)cc1NC(=O)CNc1ccc(F)c(F)c1

>  <quantitative-result>
63

$$$$
>  <compound>
O=C(CCCCCCNC(=O)c1cnc(N(c2ccccc2)c2ccccc2)nc1)NO

>  <quantitative-result>
7.25

$$$$

###

procedure-details: Quantitative High-Throughput drug screen in 47 multiple myeloma cell lines against the NCATS MIPE library collection: MM1R_ATCC cell viability assay (AID 1918981); note: potency is the fitted concentration of half-maximal effect; nearly all actives have a fitted effect of over 35% in size
reported-conditions: MM1R multiple myeloma cells, CellTiter-Glo viability, 48 h; series mostly up to 45.8 µM
From the text: PI: Beverly A. Mock Ph.D. Laboratory of Cancer Biology and Genetics, Center for Cancer Research, National Cancer Institute, National Institute of Health, Bethesda, Maryland […] 5; Detector; 425V; Luminescence; Viewlux PerkinElmer. […] 1. […] Briefly, the corresponding myeloma cell lines were screened in 1,536-well plates with 500 cells, 5-uL per well for inhibition of cell viability (assessed by measuring ATP levels with CellTiterGlo). […]
Results filed as inconclusive are left out. Active and inactive are the calls of the source. Calls come from the whole dose curve; as a rule, active = well fitted cell-killing curve with a large enough effect; inconclusive = small, poorly fitted or top-dose-only effect, or effect the other way; inactive = no such curve, though single readings can be large or run the other way.
Potency values for the compounds below.

>  <compound>
COc1cc(-c2nn(C3CCC(N4CCN(C(C)=O)CC4)CC3)c3ncnc(N)c23)ccc1NC(=O)c1cc2ccccc2n1C (stereo unspecified)

>  <Potency>
5.9 µM (active)

$$$$
>  <compound>
Fc1cc(-c2cccc3ncc(-c4cnn(C5CCNCC5)c4)nc23)cc(F)c1CN1CCOCC1

>  <Potency>
20.9 µM (active)

$$$$
>  <compound>
Cc1coc2c1C(=O)C(=O)c1c-2ccc2c1CCCC2(C)C

>  <Potency>
18.7 µM (active)

$$$$
>  <compound>
Cc1ccc(C(=O)Nc2cccc(C(F)(F)F)c2)cc1-c1ccc2nc(NCCN3CCOCC3)ncc2c1

>  <Potency>
14.8 µM (active)

$$$$
>  <compound>
Cc1cccc(C=NNc2cc(N3CCOCC3)nc(OCCc3ccccn3)n2)c1

>  <Potency>
6.62 µM (active)

$$$$

###

procedure-details: qHTS of pediatric cancer cell lines to identify multiple opportunities for drug repurposing: Confirmatory screen for Saos-2 cells (AID 1347127); note: nearly all actives have a fitted effect of over 60% in size; note: potency is the fitted concentration of half-maximal effect
reported-conditions: Saos-2 osteosarcoma cell viability; series mostly up to 45.9 µM
Inconclusive results are not listed. Calls of active or inactive are those of the source. Calls follow the shape of the dose curve; as a rule, active = well fitted cell-killing curve with a large enough effect; inconclusive = small, poorly fitted or top-dose-only effect, or effect the other way; inactive = no such curve, though single readings can be large or run the other way.
measured-parameter: Potency

>  <compound>
Cn1c2ccccc2c2c3c(c4c5ccccc5n(CCC#N)c4c21)CNC3=O

>  <result>
9270 nM (active)

$$$$
>  <compound>
Cc1c(NC(=O)OC[C@@H]2COCCN2)cn2ncnc(Nc3ccc4c(cnn4Cc4cccc(F)c4)c3)c12

>  <result>
inactive

$$$$
>  <compound>
COCCn1c2c([n+](Cc3cnccn3)c1C)C(=O)c1ccccc1C2=O

>  <result>
7.4 nM (active)

$$$$
>  <compound>
CNC(=O)c1ccccc1Nc1nc(Nc2ccc(N3CCOCC3)cc2OC)ncc1Cl

>  <result>
1470 nM (active)

$$$$
>  <compound>
CC(C)c1cnn2c(NCc3ccccc3)cc(N[C@@H](CO)[C@H](O)CO)nc12

>  <result>
585 nM (active)

$$$$
>  <compound>
COc1ccc(C=Cc2cc(OC)c(OC)c(OC)c2)cc1O

>  <result>
10.4 nM (active)

$$$$
>  <compound>
CC1(C)O[C@@H]2C[C@@H]3[C@H]4C[C@@H](F)C5=CC(=O)C=C[C@]5(C)[C@@]4(F)[C@@H](O)C[C@]3(C)[C@]2(C(=O)CO)O1

>  <result>
117 nM (active)

$$$$
>  <compound>
C=C1C(=CC=C2CCC[C@]3(C)[C@@H]([C@H](C)C=C[C@H](C)C(C)C)CC[C@@H]23)C[C@@H](O)C[C@@H]1O

>  <result>
inactive

$$$$
>  <compound>
COc1ccc(-c2cc3c(C)nc(N)nc3n(C3CCC(OCCO)CC3)c2=O)cn1 (stereo unspecified)

>  <result>
inactive

$$$$
>  <compound>
CCOc1cc2ncc(C#N)c(Nc3ccc(F)c(Cl)c3)c2cc1NC(=O)C=CCN(C)C

>  <result>
104 nM (active)

$$$$
>  <compound>
O=C(NC1CCNCC1)c1[nH]ncc1NC(=O)c1c(Cl)cccc1Cl

>  <result>
2690 nM (active)

$$$$
>  <compound>
Cc1c(Cn2c(C)nc3c(C(=O)O)cc(N4CCOCC4)cc32)cccc1C(F)(F)F

>  <result>
inactive

$$$$
>  <compound>
CC(C)[C@H](C(=O)Nc1ccc(C(=O)NO)cc1)c1ccccc1

>  <result>
1850 nM (active)

$$$$
>  <compound>
CN(c1ncccc1CNc1nc(Nc2ccc3c(c2)CC(=O)N3)ncc1C(F)(F)F)S(C)(=O)=O

>  <result>
8270 nM (active)

$$$$
>  <compound>
C=CC(=O)Nc1cccc(Oc2nc(Nc3ccc(N4CCN(C)CC4)cc3)ncc2Cl)c1

>  <result>
2930 nM (active)

$$$$
>  <compound>
O=c1[nH]nc(Sc2ncc([N+](=O)[O-])s2)n1-c1ccc2c(c1)OCCO2

>  <result>
8270 nM (active)

$$$$
>  <compound>
O=C(Nc1ncc(-c2cc(C(F)F)nn2-c2c(Cl)cccc2Cl)s1)C1CC1

>  <result>
465 nM (active)

$$$$
>  <compound>
COc1ccc(-n2nc(C(N)=O)c3c2C(=O)N(c2ccc(N4CCCCC4=O)cc2)CC3)cc1

>  <result>
inactive

$$$$
>  <compound>
Cc1cc(Nc2cc(NC(=O)c3c(Cl)cccc3Cl)ccn2)nc(N)n1

>  <result>
1310 nM (active)

$$$$
>  <compound>
Cc1ccc(C(N)=O)cc1Nc1nccc(-c2cn(C(C)C)c3cnccc23)n1

>  <result>
21400 nM (active)

$$$$
>  <compound>
Nc1ncnc2c1c(-c1cnc3[nH]ccc3c1)nn2C1CCCC1

>  <result>
1850 nM (active)

$$$$
>  <compound>
CC1=C(CO)C(=O)O[C@@H]([C@@H](C)[C@H]2CC[C@H]3[C@@H]4C[C@H]5O[C@]56[C@@H](O)C=CC(=O)[C@]6(C)[C@@H]4CC[C@]23C)C1

>  <result>
inactive

$$$$
>  <compound>
CCn1nnc2c(N3CCOCC3)nc(-c3ccc(NC(=O)Nc4ccc(C(=O)N5CCN(C)CC5)cc4)cc3)nc21

>  <result>
657 nM (active)

$$$$
>  <compound>
CNC(=O)c1ccc(N2C(=S)N(c3cnc(C#N)c(C(F)(F)F)c3)C(=O)C23CCC3)cc1F

>  <result>
inactive

$$$$
>  <compound>
Cc1nc2cnc3ccc(C#Cc4cccnc4)cc3c2n1-c1ccc(C(C)(C)C#N)cc1

>  <result>
5370 nM (active)

$$$$
>  <compound>
CCn1cc(-c2ccnc3[nH]c(-c4cccc(CN(C)C)c4)cc23)c(-c2ccc(NC(=O)N(C)C)cc2)n1

>  <result>
16500 nM (active)

$$$$
